# Test system: biotinyl-Ile-oxazolone
# Assay remarks: self-aminoacylation, catalytic enhancement (BIO) (fold over background); higher = more active; k-Seq, kA / k0A0; sequences stand for … in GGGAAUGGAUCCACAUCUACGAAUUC…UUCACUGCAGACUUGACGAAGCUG
Variants at the floor of the assay were thinned out.

Residue string	self-aminoacylation
CUACUUUAACCAAUCGGUCUG [Fam1A.1 aminoacylation ribozyme variant]	0.883
AAGUUUGCUAAUUGGCGCAAG [Fam3.1 aminoacylation ribozyme variant]	0.829
CCACAUUUCAAGCUAUCGGUC [Fam1B.1 aminoacylation ribozyme variant]	1.4
CCAGACUUCAAGCAAACGGUC [Fam1B.1 aminoacylation ribozyme variant]	0.706
CGACUUCAAACAAUCUGUCUG [Fam1A.1 aminoacylation ribozyme variant]	0.926
AUUCACCUAGGUCGUCCGGUG [Fam2.2 aminoacylation ribozyme variant]	2.52
CUACACUUCAAGCAGUCGGUC [Fam1B.1 aminoacylation ribozyme variant]	0.775
AUUACCCUGGUCUACGAGUGA [Fam2.1 aminoacylation ribozyme variant]	3.67
AAUUCCCUGGUCAUCGAGUGA [Fam2.1 aminoacylation ribozyme variant]	5.6
CCACAUUUCACGCAAUCGGUC [Fam1B.1 aminoacylation ribozyme variant]	2.33
AUCACUCUGGUCAUCGAGUGA [Fam2.1 aminoacylation ribozyme variant]	3.2
CAACACUUCAAGCAAUCUGUC [Fam1B.1 aminoacylation ribozyme variant]	0.399
AUUCACCUAUGCCAUCGGGUG [Fam2.2 aminoacylation ribozyme variant]	1.5
ACUACCCUGGACAUCGAGUGA [Fam2.1 aminoacylation ribozyme variant]	2.55
ACGUUUGCGAAUAGUCGCAAG [Fam3.1 aminoacylation ribozyme variant]	1.97
AAGUUUGCUAAAAGUCGCAAU [Fam3.1 aminoacylation ribozyme variant]	1.24
AUUACCCUGGUGAUCGAGUCA [Fam2.1 aminoacylation ribozyme variant]	0.912
AUUCACCUACGUCAUCGGGUG [Fam2.2 aminoacylation ribozyme variant]	3.24
AUUACCCUAGACAUCGAGUGA [Fam2.1 aminoacylation ribozyme variant]	3.77
AUUACCCUGGUCAUCAAGCGA [Fam2.1 aminoacylation ribozyme variant]	0.846
AUUCACCUAGGUCAUCGGCUC [Fam2.2 aminoacylation ribozyme variant]	2.5
AUUACCCUGGUCACCUAGUGA [Fam2.1 aminoacylation ribozyme variant]	2.12
GUACUUCAAACAAUCGGGCUG [Fam1A.1 aminoacylation ribozyme variant]	3.02
CCACACCACAAGCAAUCGGUC [Fam1B.1 aminoacylation ribozyme variant]	1.13

* * *

# Tested on: biotinyl-Leu-oxazolone
# Assay remarks: self-aminoacylation, catalytic enhancement (BLO) (fold over background); higher = more active; k-Seq, kA / k0A0; sequences stand for … in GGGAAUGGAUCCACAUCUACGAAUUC…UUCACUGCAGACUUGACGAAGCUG
This sample holds only a part of the variants without activity.

Residue string	Tested target	self-aminoacylation
AUUCCCCUCGGUCAUCGGGUG [Fam2.2 aminoacylation ribozyme variant]	biotinyl-Leu-oxazolone	30.8
AUUACCCAGUUCAUCGAGUGA [Fam2.1 aminoacylation ribozyme variant]	biotinyl-Leu-oxazolone	3.09
CUACUUGAAACUAUCGGUCUG [Fam1A.1 aminoacylation ribozyme variant]	biotinyl-Leu-oxazolone	0.941
AAGUUUGGUAAUAGCCGCAAG [Fam3.1 aminoacylation ribozyme variant]	biotinyl-Leu-oxazolone	1.15
AUUAACCUUGGUCAUCGGGUG [Fam2.2 aminoacylation ribozyme variant]	biotinyl-Leu-oxazolone	8.28
CCGCAUUUCAAGCAAUCGGUC [Fam1B.1 aminoacylation ribozyme variant]	biotinyl-Leu-oxazolone	2.72
AUUCACCUUGGUCAACGGGUG [Fam2.2 aminoacylation ribozyme variant]	biotinyl-Leu-oxazolone	4.24
AUUCACCUAGGUCGUCCGGUG [Fam2.2 aminoacylation ribozyme variant]	biotinyl-Leu-oxazolone	3.89
CUCCACCUAGGUCAUCGGGUG [Fam2.2 aminoacylation ribozyme variant]	biotinyl-Leu-oxazolone	5.74
GUACUUCACACAAUCGGUCUG [Fam1A.1 aminoacylation ribozyme variant]	biotinyl-Leu-oxazolone	1.11

* * *

Quick reference: self-aminoacylation of the listed items.
# Tested on: biotinyl-Met-oxazolone
# Assay remarks: self-aminoacylation, catalytic enhancement (BMO) (fold over background); higher = more active; k-Seq, kA / k0A0; sequences stand for … in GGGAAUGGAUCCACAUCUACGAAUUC…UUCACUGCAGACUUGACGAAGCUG
This sample holds only a part of the variants without activity.

Residue string	self-aminoacylation
CCCCACUUCAAGCCAUCGGUC [Fam1B.1 aminoacylation ribozyme variant]	2.87
ACUCACCUAGUUCAUCGGGUG [Fam2.2 aminoacylation ribozyme variant]	3.46
AAGUUUUCUAAUAGUCCCAAG [Fam3.1 aminoacylation ribozyme variant]	0.891
CCACACGUCAAGCAAACGGUC [Fam1B.1 aminoacylation ribozyme variant]	0.86
AUUACGCUGGUCAUCGAGUAA [Fam2.1 aminoacylation ribozyme variant]	1.43
AAGUUCGCUAAUCGUCGCAAG [Fam3.1 aminoacylation ribozyme variant]	1.25
AUUACCCUGGUUAUCGCGUGA [Fam2.1 aminoacylation ribozyme variant]	12.4
CAACACCUCAAGCAAUCGGUC [Fam1B.1 aminoacylation ribozyme variant]	1.27
CUACUUCAAACAAUCGCUCCG [Fam1A.1 aminoacylation ribozyme variant]	0.713
AUUACCCUGGUCAUCAAAUGA [Fam2.1 aminoacylation ribozyme variant]	1.14
CUACUUCAAAUAAUCGGUCCG [Fam1A.1 aminoacylation ribozyme variant]	0.599
CUACUUCAAAGAAGCGGUCUG [Fam1A.1 aminoacylation ribozyme variant]	1.01
CUUCACCUAUGUCAUCGGGUG [Fam2.2 aminoacylation ribozyme variant]	3.64
AUUCCCCUGGUCAUUGAGUGA [Fam2.1 aminoacylation ribozyme variant]	8.79
AUUACCCAGGUCAUCGAGUGG [Fam2.1 aminoacylation ribozyme variant]	1.07
AAUCACCUAGGUCAUUGGGUG [Fam2.2 aminoacylation ribozyme variant]	2.74
ACGUUUGCUAAUAGGCGCAAG [Fam3.1 aminoacylation ribozyme variant]	1.35

* * *

Recorded measurements of self-aminoacylation, one per entry
# Test system: biotinyl-Met-oxazolone
# Assay remarks: self-aminoacylation, catalytic enhancement (BMO) (fold over background); higher = more active; k-Seq, kA / k0A0; sequences stand for … in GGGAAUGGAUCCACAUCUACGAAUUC…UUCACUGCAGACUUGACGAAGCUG
Variants at the floor of the assay were thinned out.

Residue string	Tested target	self-aminoacylation
CCACACUUCAAGCUAUGGGUC [Fam1B.1 aminoacylation ribozyme variant]	biotinyl-Met-oxazolone	0.875
CCACUUCAAACAAUGGGUCUG [Fam1A.1 aminoacylation ribozyme variant]	biotinyl-Met-oxazolone	0.887
CCACACUCCAAACAAUCGGUC [Fam1B.1 aminoacylation ribozyme variant]	biotinyl-Met-oxazolone	0.917

* * *

# Tested on: biotinyl-Trp-oxazolone
# Assay remarks: self-aminoacylation, catalytic enhancement (BWO) (fold over background); higher = more active; k-Seq, kA / k0A0; sequences stand for … in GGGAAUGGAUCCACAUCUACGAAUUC…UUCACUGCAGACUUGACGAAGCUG
This sample holds only a part of the variants without activity.

Residue string	Tested target	self-aminoacylation
AUUACCCUGGUCAUAGGGUGA [Fam2.1 aminoacylation ribozyme variant]	biotinyl-Trp-oxazolone	7.12
CUACUUAAAACAAUCGGUCUA [Fam1A.1 aminoacylation ribozyme variant]	biotinyl-Trp-oxazolone	0.711
CCACACUUCAAGCCAUCGGCC [Fam1B.1 aminoacylation ribozyme variant]	biotinyl-Trp-oxazolone	4.97
CCACACUUCAUGCAAUCGGUG [Fam1B.1 aminoacylation ribozyme variant]	biotinyl-Trp-oxazolone	4.65
AUUCACAUAGGUCAUGGGGUG [Fam2.2 aminoacylation ribozyme variant]	biotinyl-Trp-oxazolone	6.97
CCACACAUCAAGCUAUCGGUC [Fam1B.1 aminoacylation ribozyme variant]	biotinyl-Trp-oxazolone	0.735
CUUGCCCUGGUCAUCGAGUGA [Fam2.1 aminoacylation ribozyme variant]	biotinyl-Trp-oxazolone	16.5
CCACACUUCAAGCGAUCGGUA [Fam1B.1 aminoacylation ribozyme variant]	biotinyl-Trp-oxazolone	0.843
AAGUUUGCUAAUAGUCCCACG [Fam3.1 aminoacylation ribozyme variant]	biotinyl-Trp-oxazolone	0.714
GUACUUCAAACAAUCGGUAUG [Fam1A.1 aminoacylation ribozyme variant]	biotinyl-Trp-oxazolone	9.84
CUACUUCAAACAAUGGGUCUA [Fam1A.1 aminoacylation ribozyme variant]	biotinyl-Trp-oxazolone	0.487
AUUCCCCUAGGUCAUCGGGUU [Fam2.2 aminoacylation ribozyme variant]	biotinyl-Trp-oxazolone	7.29
AAGUUUGCCAAUAGUCGGAAG [Fam3.1 aminoacylation ribozyme variant]	biotinyl-Trp-oxazolone	0.79
CCACACCUCAAGCAAUCGGUU [Fam1B.1 aminoacylation ribozyme variant]	biotinyl-Trp-oxazolone	1.57
GUUACCCUGGUGAUCGAGUGA [Fam2.1 aminoacylation ribozyme variant]	biotinyl-Trp-oxazolone	8.86
AUUACCCGGGUAAUCGAGUGA [Fam2.1 aminoacylation ribozyme variant]	biotinyl-Trp-oxazolone	13.2
